Target: 5-hydroxytryptamine receptor 2C (Homo sapiens)
Sequence (P28335 whole entry): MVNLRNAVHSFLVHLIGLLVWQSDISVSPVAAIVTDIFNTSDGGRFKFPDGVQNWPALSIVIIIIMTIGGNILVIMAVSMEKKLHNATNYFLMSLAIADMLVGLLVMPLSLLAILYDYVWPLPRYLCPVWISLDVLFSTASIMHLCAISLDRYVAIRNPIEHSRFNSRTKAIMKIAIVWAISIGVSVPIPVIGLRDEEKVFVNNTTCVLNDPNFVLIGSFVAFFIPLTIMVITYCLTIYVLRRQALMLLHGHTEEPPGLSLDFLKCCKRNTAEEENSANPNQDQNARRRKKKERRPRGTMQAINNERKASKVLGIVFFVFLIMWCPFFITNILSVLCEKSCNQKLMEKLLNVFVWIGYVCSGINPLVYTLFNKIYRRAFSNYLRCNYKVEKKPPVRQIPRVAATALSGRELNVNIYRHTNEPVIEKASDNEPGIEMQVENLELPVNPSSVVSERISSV
Assay: Inhibitory constant on human 5-hydroxytryptamine 2C receptor transfected in to HeLa cells
Endpoint Name: Ki (nM)
State just the number; it will be interpreted in nM.

Examples with answers:
{"Compound": "O=C1c2ccoc2CCC1CCN1CCC(c2noc3cc(F)ccc23)CC1 (centres undefined)", "Study System": "5-hydroxytryptamine receptor 2C (Homo sapiens)", "Reported Value": 34.7}
{"Compound": "O=C1CC(CN2CCC(c3noc4cc(F)ccc34)CC2)Cc2[nH]c3ccccc3c21 (centres undefined)", "Study System": "5-hydroxytryptamine receptor 2C (Homo sapiens)", "Reported Value": 27.5}

Consider now this further compound.
Q: Find the recorded Ki belonging to O=C1CC(CN2CCC(c3noc4cc(F)ccc34)CC2)Cc2occc21 (centres undefined) and report it.
A: 3980

Where these numbers come from: ChEMBL document CHEMBL1135402
